# Test system: LDL, isolated from human whole blood
# Protocol summary: In vitro inhibition of LDL oxidation (Esterbauer et al), CuSO4-induced
# Particulars: 5 μmol test compound, 10 μmol CuSO4
Measured metric: LDL oxidation inhibition (prolongation of the lag phase in min)
Report as a plain number; the unit min is understood.

Sample records with LDL oxidation inhibition (prolongation of the lag phase in min):
C[C@]12CC=C3c4ccc(O)cc4CC[C@H]3[C@@H]1CC[C@@]21CO1 :: 210
Cc1c(C)c2c(c(C)c1O)CCC(C)(CN1CCN(c3cc(N4CCCC4)nc(N4CCCC4)n3)CC1)O2 (stereo not shown) [Compound U-78517F, reference compound] :: 70
C[C@]12CC[C@@H]3c4ccc(O)cc4CC[C@H]3[C@@H]1C[C@@H](O)[C@@H]2O [Estriol, reference compound] :: 45

-- ask Using the record for C[C@@]12CC[C@H]3c4ccc(O)cc4CC[C@@H]3[C@H]1CC[C@H]2O , state its measured LDL oxidation inhibition (prolongation of the lag phase in min).
-- reply 120

-- ask Using the record for C[C@]12CCC3=C(CCc4cc(O)ccc43)[C@@H]1CC[C@@H]2O [8-Dehydroestradiol] , state its measured LDL oxidation inhibition (prolongation of the lag phase in min).
-- reply 120

-- ask Using the record for C[C@]12CC[C@@H]3c4ccc(O)cc4CC[C@H]3[C@@H]1CC[C@@H]2O [17β-Estradiol, reference compound] , state its measured LDL oxidation inhibition (prolongation of the lag phase in min).
-- reply 110

-- ask Using the record for C[C@]12CC[C@@H]3c4ccc(O)cc4CC[C@H]3[C@@H]1CC[C@@]21CO1 , state its measured LDL oxidation inhibition (prolongation of the lag phase in min).
-- reply 170

====

Entries and their measured Relative binding affinity to estrogen receptor follow.
# Tested target: estrogen receptor (Oryctolagus cuniculus, UniProt G1SML6)
# Construct: in uterine cytosol of the infantile rabbit; from tissue; host or cells: uterine cytosol of infantile rabbit
# Sequence (G1SML6 1-598): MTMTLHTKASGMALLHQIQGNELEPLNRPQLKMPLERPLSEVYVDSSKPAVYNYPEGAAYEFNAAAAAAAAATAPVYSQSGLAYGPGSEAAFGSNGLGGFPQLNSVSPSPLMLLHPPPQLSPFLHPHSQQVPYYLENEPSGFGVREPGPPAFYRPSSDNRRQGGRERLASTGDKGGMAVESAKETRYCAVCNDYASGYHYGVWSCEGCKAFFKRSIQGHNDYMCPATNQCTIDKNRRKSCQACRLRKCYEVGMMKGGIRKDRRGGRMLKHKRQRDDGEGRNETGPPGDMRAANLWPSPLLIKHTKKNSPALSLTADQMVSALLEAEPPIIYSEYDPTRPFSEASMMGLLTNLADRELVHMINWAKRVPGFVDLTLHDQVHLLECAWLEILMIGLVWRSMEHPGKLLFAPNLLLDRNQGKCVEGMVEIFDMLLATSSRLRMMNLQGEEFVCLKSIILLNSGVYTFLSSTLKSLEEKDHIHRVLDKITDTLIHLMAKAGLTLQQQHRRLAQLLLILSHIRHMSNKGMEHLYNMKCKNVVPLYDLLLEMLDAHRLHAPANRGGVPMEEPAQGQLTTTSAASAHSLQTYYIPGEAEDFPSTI
# Protocol summary: Estrogen receptor binding, competitive with 3H-ethinyl estradiol in uterine cytosol
# Particulars: RBA relative to 17β-estradiol, infantile rabbit uterine cytosol, 0° C.
Report as a plain number; the unit % is understood.

Sample records with Relative binding affinity to estrogen receptor:
C[C@]12CCC3=C(CCc4cc(O)ccc43)[C@@H]1CC[C@@H]2O [8-Dehydroestradiol] :: 59.6
C[C@]12CC[C@@H]3c4ccc(O)cc4CC[C@H]3[C@@H]1C[C@@H](O)[C@@H]2O [Estriol, reference compound] :: 10.3
C[C@]12CC=C3c4ccc(O)cc4CC[C@H]3[C@@H]1C[C@@H](O)[C@@H]2O [9(11)-dehydroestriol] :: 7.5
CC(CO)[C@H]1CC[C@H]2[C@@H]3CCc4cc(O)ccc4[C@H]3CC[C@]12C (some centres unmarked) :: 22.5

-- ask Using the record for C[C@]12CC[C@@H]3c4ccc(O)cc4C=C[C@H]3[C@@H]1C[C@@H](O)[C@@H]2O [6-Dehydroestriol] , state its measured Relative binding affinity to estrogen receptor.
-- reply 7.9
